tested on: barnyardgrass (Echinachloa crus-galli, ECC); test: Post-emerge test, barnyardgrass; assay type: in vivo; conditions: 250 g ai/ha, 14 days after application, rating scale 0-100 (0 no damage, 100 complete death)
Threshold check on Post-emerge Herbicidal Activity ECC (phytotoxicity rating): strictly below 60 is YES; on or above 60 is NO.

1. CC1C(=O)Nc2c(-c3nn(C)c(OC(F)F)c3Cl)c(F)cc3c2N1C(=O)CO3 (centres unmarked) [1-26] | NO
2. CC1C(=O)N(C)c2c(-c3nn(C)c(OC(F)F)c3Cl)c(F)cc3c2N1C(=O)CO3 (centres unmarked) [1-62] | YES
3. CCC1C(=O)Nc2c(-c3nn(C)c(OC(F)F)c3Cl)c(F)cc3c2N1C(=O)C(C)(C)O3 (centres unmarked) [1-61] | YES
4. CC(C)C1C(=O)Nc2c(N3C(=O)C4=C(CCCC4)C3=O)c(F)cc3c2N1C(=O)CO3 (centres unmarked) [1-78] | YES
5. Cn1nc(-c2c(F)cc3c4c2NC(=O)CN4C(=O)C(C)(C)O3)c(Cl)c1C(F)(F)F [1-52] | YES
6. Cn1nc(-c2c(F)cc3c4c2NC(=O)C(c2ccccc2)N4C(=O)CO3)c(Cl)c1OC(F)F (centres unmarked) [1-33] | NO

###

system: wheat (Triticum aestivum); assay: Pre-emerge test, crop damage wheat; format: in vivo; settings: pre-emerge, 250 g ai/ha, 14 days after application, rating scale 0-100 (0 no damage, 100 complete death)
Output Met for Pre-emerge crop damage WHEAT (phytotoxicity rating) not less than 40; output Not met otherwise.

1. CC(C)C1C(=O)Nc2c(N3C(=O)C4=C(CCCC4)C3=O)c(F)cc3c2N1C(=O)CO3 (centres unmarked) | Not met
2. Cn1nc(-c2c(F)cc3c4c2NC(=O)C(C)(C)N4C(=O)CO3)c(Cl)c1OC(F)F | Met
3. CCC1C(=O)Nc2c(-c3nn(C)c(OC(F)F)c3Cl)c(F)cc3c2N1C(=O)C(C)(C)O3 (centres unmarked) | Not met
4. O=C1CN2C(=O)COc3cc(F)c(N4C(=O)C5=C(CCCC5)C4=O)c(c32)N1 | Not met
5. O=C1Nc2c(-c3ncc(C(F)(F)F)cc3Cl)c(F)cc3c2N(C(=O)CO3)C1c1ccccc1 (centres unmarked) | Not met
6. CC(C)C1C(=O)Nc2c3c(cc(F)c2-n2c(=O)cc(C(F)(F)F)n(C)c2=O)OCC(=O)N31 (centres unmarked) | Met
7. CC1C(=O)N(C)c2c(-c3nn(C)c(OC(F)F)c3Cl)c(F)cc3c2N1C(=O)CO3 (centres unmarked) | Met
8. CC1C(=O)Nc2c(-c3nn(C)c(OC(F)F)c3Cl)c(F)cc3c2N1C(=O)C(C)(C)O3 (centres unmarked) | Met

###

test system: large crabgrass (Digitaria sanguinalis, DIS); test: Post-emerge test, large crabgrass; assay type: in vivo; details: 250 g ai/ha, 14 days after application, rating scale 0-100 (0 no damage, 100 complete death)
property: Post-emerge Herbicidal Activity DIS (phytotoxicity rating)

1. CC1C(=O)Nc2c(-c3nn(C)c(OC(F)F)c3Cl)c(F)cc3c2N1C(=O)C(C)(C)O3 (stereo not shown) | 0
2. CCC1C(=O)Nc2c(-c3ncc(C(F)(F)F)cc3Cl)c(F)cc3c2N1C(=O)CO3 (stereo not shown) | 95
3. CC1Oc2cc(F)c(-c3nn(C)c(C(F)(F)F)c3Cl)c3c2N(C1=O)C(C)C(=O)N3 (mixture of isomers) [1-50] | 70
4. Cc1nn(-c2c(F)cc3c4c2NC(=O)CN4C(=O)CO3)c(=O)n1C(F)F | 0
5. CC1Oc2cc(F)c(-c3nn(C)c(OC(F)F)c3Cl)c3c2N(C1=O)C(C)C(=O)N3 (mixture of isomers) | 10
6. CC1Oc2cc(F)c(-c3nn(C)c(C(F)(F)F)c3Cl)c3c2N(C1=O)C(C(C)C)C(=O)N3 (mixture of isomers) | 0
7. CCC1C(=O)Nc2c3c(cc(F)c2-n2nc(C)n(C(F)F)c2=O)OCC(=O)N31 (stereo not shown) | 0
8. Cn1nc(-c2c(F)cc3c4c2NC(=O)CN4C(=O)C(C)(C)O3)c(Cl)c1C(F)(F)F | 0
9. CCC1C(=O)Nc2c(-c3nn(C)c(OC(F)F)c3Cl)c(F)cc3c2N1C(=O)C(C)(C)O3 (stereo not shown) | 0
10. O=C1CN2C(=O)COc3cc(F)c(-n4nnn(CCCF)c4=O)c(c32)N1 | 0
11. CC1C(=O)Nc2c(-c3nn(C)c(OC(F)F)c3Cl)c(F)cc3c2N1C(=O)CO3 (stereo not shown) | 40
12. CC1C(=O)Nc2c(-c3nn(C)c(C(F)(F)F)c3Cl)c(F)cc3c2N1C(=O)C(C)(C)O3 (stereo not shown) | 0
13. O=C1Nc2c(-c3ncc(C(F)(F)F)cc3Cl)c(F)cc3c2N(C(=O)CO3)C1c1ccccc1 (stereo not shown) | 0
14. CC1Oc2cc(F)c(-c3nn(C)c(C(F)(F)F)c3Cl)c3c2N(C1=O)C(C)C(=O)N3 (mixture of isomers) [1-51] | 90
15. Cn1nc(-c2c(F)cc3c4c2NC(=O)CN4C(=O)C(C)(C)O3)c(Cl)c1OC(F)F | 99
16. Cc1nn(-c2c(F)cc3c4c2NC(=O)C(C)N4C(=O)CO3)c(=O)n1C(F)F (stereo not shown) | 0

###

system: upland rice (Oryza sp., var.Tebonnet, RICE); assay: Post-emerge test, crop damage upland rice; format: in vivo; details: var. Tebonnet, Oryza sp. (upland rice), in vivo, 14 days
Post-emerge crop damage RICE (phytotoxicity rating): recorded values
property: Post-emerge crop damage RICE (phytotoxicity rating)

1. CC1C(=O)Nc2c(-c3nn(C)c(OC(F)F)c3Cl)c(F)cc3c2N1C(=O)CO3 (stereo not shown) | 90
2. Cn1nc(-c2c(F)cc3c4c2NC(=O)CN4C(=O)C(C)(C)O3)c(Cl)c1C(F)(F)F | 0
3. C[C@H]1Oc2cc(F)c(-c3nn(C)c(OC(F)F)c3Cl)c3c2N(CC(=O)N3)C1=O | 75
4. Cn1nc(-c2c(F)cc3c4c2NC(=O)CN4C(=O)CO3)c(Cl)c1OC(F)F | 100
5. Cn1nc(-c2c(F)cc3c4c2NC(=O)CN4C(=O)CO3)c(Cl)c1C(F)(F)F | 99
6. Cn1nc(-c2c(F)cc3c4c2NC(=O)C(C)(C)N4C(=O)CO3)c(Cl)c1C(F)(F)F | 80
7. C[C@H]1Oc2cc(F)c(-c3nn(C)c(C(F)(F)F)c3Cl)c3c2N(CC(=O)N3)C1=O | 60

###

Post-emerge Herbicidal Activity SEV (phytotoxicity rating) reference
system: green foxtail (Setaria viridis, SEV); test: Post-emerge test, green foxtail; format: in vivo; conditions: 250 g ai/ha, 14 days after application, rating scale 0-100 (0 no damage, 100 complete death)
property: Post-emerge Herbicidal Activity SEV (phytotoxicity rating)

1) CCC1C(=O)Nc2c(-c3ncc(C(F)(F)F)cc3Cl)c(F)cc3c2N1C(=O)CO3 (stereo not drawn) [1-66] | 98
2) Cn1nc(-c2c(F)cc3c4c2NC(=O)CN4C(=O)CO3)c(Cl)c1C(F)(F)F [1-13] | 100
3) Cn1nc(-c2c(F)cc3c4c2NC(=O)C(Cl)N4C(=O)CO3)c(Cl)c1OC(F)F (stereo not drawn) [1-79] | 65
4) CC1C(=O)Nc2c(-c3nn(C)c(OC(F)F)c3Cl)c(F)cc3c2N1C(=O)C(C)(C)O3 (stereo not drawn) [1-60] | 95
5) O=C1CN2C(=O)COc3cc(F)c(-n4nnn(CCCF)c4=O)c(c32)N1 [1-76] | 0
6) Cn1c(C(F)(F)F)cc(=O)n(-c2c(F)cc3c4c2NC(=O)CN4C(=O)CO3)c1=O [1-1] | 95
7) O=C1CN2C(=O)COc3cc(F)c(N4C(=O)C5=C(CCCC5)C4=O)c(c32)N1 [1-37] | 75
8) CC1Oc2cc(F)c(-c3nn(C)c(OC(F)F)c3Cl)c3c2N(CC(=O)N3)C1=O (stereo not drawn) [1-56] | 100
9) CC1Oc2cc(F)c(-c3nn(C)c(C(F)(F)F)c3Cl)c3c2N(C1=O)C(C)C(=O)N3 (mixture of isomers) [1-51] | 100
10) CC1Oc2cc(F)c(-c3nn(C)c(C(F)(F)F)c3Cl)c3c2N(C1=O)C(C)C(=O)N3 (mixture of isomers) [1-50] | 70
11) CCC1C(=O)Nc2c(-c3nn(C)c(OC(F)F)c3Cl)c(F)cc3c2N1C(=O)C(C)(C)O3 (stereo not drawn) [1-61] | 85
12) Cn1nc(-c2c(F)cc3c4c2NC(=O)CN4C(=O)C(C)(C)O3)c(Cl)c1C(F)(F)F [1-52] | 0
